Target: T1, EGFRvIII extracellular domain (EGFR (1-29)-G-(298-645)-LESRGPF-Myc-NMHTG-6His) (human, UniProt P00533 298-641)
T1 construct: also called recombinant EGFRvIII; not shown: Myc tag
Test: SPR (Biacore), antibody captured via anti-human Fc, antigen injected
Measurement Type: kon

>  <Binder>
Antibody C (AbC) (antibody, V domains shown, Full length IgG1) VH: EVQLQESGPGLVKPSQTLSLTCTVSGYSISSDFAWNWIRQPPGKGLEWMGYISYSGNTRYQPSLKSRITISRDTSKNQFFLKLNSVTAADTATYYCVTAGRGFPYWGQGTLVTVSS VL: DIQMTQSPSSMSVSVGDRVTITCHSSQDINSNIGWLQQKPGKSFKGLIYHGTNLDDGVPSRFSGSGSGTDYTLTISSLQPEDFATYYCVQYEQFPWTFGGGTKLEIK

>  <Measurement Type>
kon

>  <Recorded Result>
220000 M⁻¹ s⁻¹

$$$$
>  <Binder>
Antibody J (AbJ) (antibody, V domains shown, Full length IgG1) VH: EVQLQESGPGLVKPSQTLSLTCTVSGYSIGKDFAWNWIRQPPGKGLEWMGYISYSGNTRYQPSLKSRITISRDTSKNQFFLKLNSVTAADTATYYCVTASRGLPYWGQGTLVTVSS VL: DIQMTQSPSSMSVSVGDRVTITCHSSQDITYNIGWLQQKPGKSFKGLIYHGANLDDGVPSRFSGSGSGTDYTLTISSLQPEDFATYYCVQYDEFPWTFGGGTKLEIK

>  <Measurement Type>
kon

>  <Recorded Result>
318000 M⁻¹ s⁻¹

$$$$
>  <Binder>
Antibody B (AbB) (antibody, V domains shown, Converted from scFv into a full length IgG1 antibody) VH: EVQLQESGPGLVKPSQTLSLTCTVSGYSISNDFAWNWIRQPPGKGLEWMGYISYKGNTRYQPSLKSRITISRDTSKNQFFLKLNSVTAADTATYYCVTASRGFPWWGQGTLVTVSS VL: DIQMTQSPSSMSVSVGDRVTITCHSSQDINSNIGWLQQKPGKSFKGLIYHGTNLDDGVPSRFSGSGSGTDYTLTISSLQPEDFATYYCVQYAQFPWTFGGGTKLEIK

>  <Measurement Type>
kon

>  <Recorded Result>
78300 M⁻¹ s⁻¹

$$$$
>  <Binder>
Antibody D (AbD) (antibody, V domains shown, Full length IgG1) VH: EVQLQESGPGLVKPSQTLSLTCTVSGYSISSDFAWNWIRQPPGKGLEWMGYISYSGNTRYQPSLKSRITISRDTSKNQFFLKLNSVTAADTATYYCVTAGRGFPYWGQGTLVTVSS VL: DIQMTQSPSSMSVSVGDRVTITCHSSQDINSNLGWLQQKPGKSFKGLIYHGANLHDGVPSRFSGSGSGTDYTLTISSLQPEDFATYYCVQYAEFPWTFGGGTKLEIK

>  <Measurement Type>
kon

>  <Recorded Result>
141000 M⁻¹ s⁻¹

$$$$
>  <Binder>
Antibody L (AbL) (antibody, V domains shown, Full length IgG1) VH: EVQLQESGPGLVKPSQTLSLTCTVSGYSIGKDFAWNWIRQPPGKGLEWMGYISYNGNTRYQPSLKSRITISRDTSKNQFFLKLNSVTAADTATYYCVTASRGLPYWGQGTLVTVSS VL: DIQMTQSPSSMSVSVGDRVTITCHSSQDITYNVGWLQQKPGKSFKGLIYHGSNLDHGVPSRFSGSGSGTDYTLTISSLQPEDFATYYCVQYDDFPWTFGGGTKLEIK

>  <Measurement Type>
kon

>  <Recorded Result>
200000 M⁻¹ s⁻¹

$$$$

Source: patent US20150337042A1
